Reported pIC50 (FRET) by item:
- target entity: RORγ ligand binding domain (LBD) (Homo sapiens (Human), UniProt P51449)
- Sequence (P51449 269-508): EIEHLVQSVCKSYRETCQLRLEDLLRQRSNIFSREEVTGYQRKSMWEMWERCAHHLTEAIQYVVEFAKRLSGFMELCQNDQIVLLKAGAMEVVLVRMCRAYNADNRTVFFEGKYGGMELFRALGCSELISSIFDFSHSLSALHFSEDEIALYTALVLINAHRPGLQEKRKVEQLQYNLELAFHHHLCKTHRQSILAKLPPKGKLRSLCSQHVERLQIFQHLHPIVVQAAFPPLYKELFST
- assay explanation: TR-FRET Activity Assay (ligand sensing assay, LANCE)
- recorded conditions: TR-FRET, interaction of RORγ-LBD with coactivator peptide
measurement name: pIC50 (FRET)

INSERT INTO measurements (compound, measurement_name, observed_measurement) VALUES
  ('O=C(c1nc(CC2CCCCC2)c(-c2ccc(S(=O)(=O)NC3CCOCC3)c3ccccc23)s1)N1CC2(CCS(=O)(=O)CC2)C1', 'pIC50 (FRET)', '6.2/7.3/7.4'),
  ('CC(C)(C)NS(=O)(=O)c1ccc(-c2sc(S(N)(=O)=O)nc2CC2CCCCC2)c2ccccc12', 'pIC50 (FRET)', '6.6/7.5/7.7'),
  ('CC(C)(O)CNC(=O)c1nc(CC2CCCCC2)c(-c2ncc(S(=O)(=O)NC(C)(C)C)c3ccccc23)s1', 'pIC50 (FRET)', '6.4/7.7/7.7'),
  ('CC(C)(CCNC(=O)c1nc(CC2CCCCC2)c(-c2cc(C(C)(C)C)cc(C3(C)CC3)c2)s1)C(=O)O', 'pIC50 (FRET)', '6.3/7.0/7.0'),
  ('CCCc1nc(C(=O)NC2CCS(=O)(=O)CC2)sc1-c1ccc(S(=O)(=O)NC(C)(C)C)c(Cl)c1Cl', 'pIC50 (FRET)', '7.0/7.4/7.5'),
  ('O=C(c1nc(CC2CCCCC2)c(-c2ccc(S(=O)(=O)NC3CS(=O)(=O)C3)c3ccccc23)s1)N1CC2(CCS(=O)(=O)CC2)C1', 'pIC50 (FRET)', '6.6/6.4/6.4'),
  ('CC(C)(C)c1cc(-c2sc(C(=O)N[C@H]3C[C@H](C(=O)O)C3)nc2CC2CCCCC2)cc(C(F)F)c1', 'pIC50 (FRET)', '6.3/7.0/7.1'),
  ('CC(C)(O)CNC(=O)c1nc(CC2CCCCC2)c(-c2ccc(S(N)(=O)=O)c(Cl)c2Cl)s1', 'pIC50 (FRET)', 5.0),
  ('CC(C)(C)NS(=O)(=O)c1ccc(-c2sc(C(=O)NC3CCS(=O)(=O)CC3)nc2-c2ccccc2)c2ccccc12', 'pIC50 (FRET)', '7.2/7.8/7.9'),
  ('CC1CCCCN1C(=O)c1nc(C(=O)NCC(C)(C)O)sc1-c1ccc(S(=O)(=O)NC(C)(C)C)c2ccccc12 (stereo not drawn)', 'pIC50 (FRET)', '6.1/7.3/7.3'),
  ('CC(C)(C)NS(=O)(=O)c1ccc(-c2sc(C(=O)N3CC4(CC[S+]([O-])CC4)C3)nc2CC2CCCCC2)c2ccccc12', 'pIC50 (FRET)', '6.4/7.8/7.9'),
  ('CC(C)(C)c1cc(-c2ccc(C(N)=O)cc2CC2CCCCC2)cc(C(C)(C)C)c1', 'pIC50 (FRET)', '6.4/6.2/6.2'),
  ('CC(C)(C)NS(=O)(=O)c1ccc(-c2sc(C(=O)N3CC4(COC4)C3)nc2CC2CCCCC2)c(Cl)c1Cl', 'pIC50 (FRET)', '6.6/7.9/8.0'),
  ('CC(C)(O)CC(=O)Nc1nc(CC2CCCCC2)c(-c2ccc(S(=O)(=O)NC(C)(C)C)c(C(F)(F)F)c2)s1', 'pIC50 (FRET)', '6.6/7.5/7.8'),
  ('CC(C)(C)NS(=O)(=O)c1ccc(-c2sc(C(=O)NC34CCC(C(=O)O)(CC3)CC4)nc2CC2CCCCC2)c2ccccc12', 'pIC50 (FRET)', '6.3/8.2/8.2');
